- test name: Cytotoxicity against human MT4 cells assessed as reduction in cell viability measured after 5 days by MTS/PES assay
- Assay type: cell-based
Listing: CC50 at 120 h of selected compounds

* O=C(CCC(CCC(=O)NC(Cc1c(-c2ccccc2F)[nH]c2ccccc12)C(=O)O)(CCC(=O)NC(Cc1c(-c2ccccc2F)[nH]c2ccccc12)C(=O)O)[N+](=O)[O-])NC(Cc1c(-c2ccccc2F)[nH]c2ccccc12)C(=O)O (configuration not stated) | > 100 µM

Here is the next item to consider.
Need CC50 at 120 h, item O=C(CCC(CCC(=O)NC(Cc1c(-c2ccc(C(F)(F)F)cc2)[nH]c2ccccc12)C(=O)O)(CCC(=O)NC(Cc1c(-c2ccc(C(F)(F)F)cc2)[nH]c2ccccc12)C(=O)O)[N+](=O)[O-])NC(Cc1c(-c2ccc(C(F)(F)F)cc2)[nH]c2ccccc12)C(=O)O (configuration not stated) > 100 µM

Cited source: ChEMBL document CHEMBL4321868
